Data provenance is PubChem BioAssay AID2060900.

Provide the recorded viability, T/C for the entries that follow.
Tested on: 521955-158-R2-J5-PDC complex spheroids, viability;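 also: spheroids also contain HUVEC endothelial cells and mesenchymal stem cells as stroma; compound exposure lasted seven days before the viability read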
PROTOCOL NOTES: Anticancer human tumor 521955-158-R2-J5-PDC patient-derived pancreatic carcinoma cell line growth inhibition [RAS]
CONDITION DETAILS: second compound 0.0949 µM; first compound 0.316 µM; hits give low values

The recorded viability, T/C for CC1(O)CCCC1n1c(=O)c(C(F)F)cc2cnc(NC3CCN(S(C)(=O)=O)CC3)nc21 (centres undefined) + CCn1c(-c2cccnc2C(C)OC)c2c3cc(ccc31)N1CCOC(CC(NC(=O)C(C(C)C)N(C)C(=O)C3(F)CCN(C(=O)C#CC(C)(C)N(C)C)CC3)C(=O)N3CCCC(N3)C(=O)OCC(C)(C)C2)C1 is 47.3%

Summary for this molecule, Cc1nc(N2CCC3(CC2)COC(C)C3N)c(CO)nc1Sc1ccnc(N)c1Cl (centres undefined) + CCn1c(-c2cccnc2C(C)OC)c2c3cc(ccc31)N1CCOC(CC(NC(=O)C(C(C)C)N(C)C(=O)C3(F)CCN(C(=O)C#CC(C)(C)N(C)C)CC3)C(=O)N3CCCC(N3)C(=O)OCC(C)(C)C2)C1 : viability, T/C is 55.8%

Entry O=C(c1ccc(F)c(F)c1Nc1ccc(I)cc1F)N1CC(O)([C@@H]2CCCCN2)C1 + CCn1c(-c2cc(N3CCN(C)CC3)cnc2C(C)OC)c2c3cc(ccc31)-c1csc(n1)CC(NC(=O)C1CC1C)C(=O)N1CCCC(N1)C(=O)OCC(C)(C)C2 — recorded viability, T/C = 9.48%

Recorded viability, T/C (molecule CCN1CCN(Cc2ccc(Nc3ncc(F)c(-c4cc(F)c5nc(C)n(C(C)C)c5c4)n3)nc2)CC1 + CCn1c(-c2cccnc2C(C)OC)c2c3cc(ccc31)N1CCOC(CC(NC(=O)C(C(C)C)N(C)C(=O)C3(F)CCN(C(=O)C#CC(C)(C)N(C)C)CC3)C(=O)N3CCCC(N3)C(=O)OCC(C)(C)C2)C1 ): 71.6%
